B1: Triacylglycerol hydrolase DDHD2, residues 389 to 447; numbered along this chain, O94830 (parent)
chain: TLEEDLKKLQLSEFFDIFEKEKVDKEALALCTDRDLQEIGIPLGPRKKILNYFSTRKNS

Variants of: B1
measurement.notes: abundance fitness (aPCA) (normalised: wild type 0, dead -1); higher = more abundant; growth selection in yeast, the domain comes from the species named
applied.conditions: Homo sapiens
Quick reference: abundance fitness of the listed items.

> print(dat)
   sequence.change       readout.kind  test.value
1             T55S  abundance fitness      -0.007

q: For the variant D16F , report abundance fitness.
a: 0.015

q: For the variant D5S , report abundance fitness.
a: -0.016

q: For the variant E3F , report abundance fitness.
a: -0.209

q: For the variant C31S , report abundance fitness.
a: 0.165

q: For the variant K7Q , report abundance fitness.
a: 0.083
